Overview of reported pKd across a group of molecules:
assay target: Cannabinoid receptor 1 (Homo sapiens)
Sequence (P21554 whole entry): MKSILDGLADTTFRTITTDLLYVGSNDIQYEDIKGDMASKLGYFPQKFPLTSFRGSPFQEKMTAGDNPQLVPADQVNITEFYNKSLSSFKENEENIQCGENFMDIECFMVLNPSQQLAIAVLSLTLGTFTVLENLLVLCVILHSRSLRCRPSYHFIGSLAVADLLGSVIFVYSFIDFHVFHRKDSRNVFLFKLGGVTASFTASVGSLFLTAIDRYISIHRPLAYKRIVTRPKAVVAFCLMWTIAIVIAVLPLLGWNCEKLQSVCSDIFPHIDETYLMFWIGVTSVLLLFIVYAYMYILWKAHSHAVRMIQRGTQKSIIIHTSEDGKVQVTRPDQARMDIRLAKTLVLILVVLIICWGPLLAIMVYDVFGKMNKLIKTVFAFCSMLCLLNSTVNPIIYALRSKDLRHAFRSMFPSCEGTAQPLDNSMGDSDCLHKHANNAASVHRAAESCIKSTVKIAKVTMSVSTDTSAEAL
method description: Tested for binding affinity against Cannabinoid receptor 1 (CB1).
pKd: −log10 of the molar value.
value kind: pKd

INSERT INTO results (molecule, value_kind, measured_result) VALUES
  ('CC1=CCC2C(C1)c1c(O)cc(C/C=C/CCCO)cc1OC2(C)C (stereo not given)', 'pKd', 7.27),
  ('CCCCCCC(C)(C)c1cc(O)c2c(c1)OC(C)(C)C1CC=C(C)CC21 (stereo not given)', 'pKd', 9.11),
  ('COCCC/C=C/Cc1cc(O)c2c(c1)OC(C)(C)C1CC=C(C)CC21 (stereo not given)', 'pKd', 7.94),
  ('CC1=CCC2C(C1)c1c(O)cc(C/C=C/CCCF)cc1OC2(C)C (stereo not given)', 'pKd', 7.68),
  ('CC1=CCC2C(C1)c1c(O)cc(CC#CC(C)Br)cc1OC2(C)C (stereo not given)', 'pKd', 7.60),
  ('CC(=O)NCCC/C=C/Cc1cc(O)c2c(c1)OC(C)(C)C1CC=C(C)CC21 (stereo not given)', 'pKd', 7.78),
  ('CC1=CCC2C(C1)c1c(O)cc(CC#CCCO)cc1OC2(C)C (stereo not given)', 'pKd', 6.35),
  ('CCCCCC#Cc1cc(O)c2c(c1)OC(C)(C)C1CC=C(C)CC21 (stereo not given)', 'pKd', 7.44),
  ('CC1=CCC2C(C1)c1c(O)cc(C/C=C/CCCC[N+](=O)[O-])cc1OC2(C)C (stereo not given)', 'pKd', 8.45),
  ('CC(=O)NCCC#CCc1cc(O)c2c(c1)OC(C)(C)C1CC=C(C)CC21 (stereo not given)', 'pKd', 6.51);

----------
assay target: UniProtKB P21554
method description: Binding affinity against Cannabinoid receptor 1.
Quick list: log10(Kd) per entry.
value kind: log10(Kd) (log10 of the value in nM)

INSERT INTO results (molecule, measured_result) VALUES
  ('CCCCC/C=C/c1cc(O)c2c(c1)OC(C)(C)C1CC=C(C)CC21 (stereo not drawn)', -0.07),
  ('CC1=CCC2C(C1)c1c(O)cc(CC#CCBr)cc1OC2(C)C (stereo not drawn)', 2.16),
  ('CCC/C=C/CCCc1cc(O)c2c(c1)OC(C)(C)C1CC=C(C)CC21 (stereo not drawn)', 1.04),
  ('CC1=CCC2C(C1)c1c(O)cccc1OC2(C)C (stereo not drawn)', 1.65),
  ('CC1=CCC2C(C1)c1c(O)cc(C/C=C/CCCC#N)cc1OC2(C)C (stereo in doubt; 29)', -0.11),
  ('CCCCC#CCCc1cc(O)c2c(c1)OC(C)(C)C1CC=C(C)CC21 (stereo not drawn)', 0.95),
  ('C#CCCCC#Cc1cc(O)c2c(c1)OC(C)(C)C1CC=C(C)CC21 (stereo not drawn)', 2.66),
  ('CC1=CCC2C(C1)c1c(O)cc(CC#CCCCBr)cc1OC2(C)C (stereo not drawn)', 0.08),
  ('CC1=CCC2C(C1)c1c(O)cc(C/C=C/CCCC#N)cc1OC2(C)C (stereo in doubt; 30)', 0.10),
  ('CCCC#CCc1cc(O)c2c(c1)OC(C)(C)C1CC=C(C)CC21 (stereo not drawn)', 1.04),
  ('CCCC#CCCCc1cc(O)c2c(c1)OC(C)(C)C1CC=C(C)CC21 (stereo not drawn)', 1.28),
  ('CCCCC/C=C/Cc1cc(O)c2c(c1)OC(C)(C)C1CC=C(C)CC21 (stereo not drawn)', 0.50),
  ('CCCCCC#CCc1cc(OC)c2c(c1)OC(C)(C)C1CC=C(C)CC21 (stereo not drawn)', 2.28),
  ('CC1=CCC2C(C1)c1c(O)cc(C/C=C/CCCBr)cc1OC2(C)C (stereo not drawn)', 0.22),
  ('C#CCCc1cc(O)c2c(c1)OC(C)(C)C1CC=C(C)CC21 (stereo not drawn)', 2.56),
  ('CC1=CCC2C(C1)c1c(O)cc(C#CCCCC#N)cc1OC2(C)C (stereo not drawn)', 2.02),
  ('CC1=CCC2C(C1)c1c(O)cc(CC#CCCC[N+](=O)[O-])cc1OC2(C)C (stereo not drawn)', 0.73),
  ('CCCC/C=C/CCc1cc(O)c2c(c1)OC(C)(C)C1CC=C(C)CC21 (stereo not drawn)', 0.53),
  ('CC1=CCC2C(C1)c1c(O)cc(CC#CCCC#N)cc1OC2(C)C (stereo not drawn)', 1.49),
  ('COC(=O)C#CCc1cc(O)c2c(c1)OC(C)(C)C1CC=C(C)CC21 (stereo not drawn)', 2.86),
  ('CC1=CCC2C(C1)c1c(O)cc(C=C=CCCCC(=O)O)cc1OC2(C)C (stereo not drawn)', 3.50),
  ('CCCCCCC#CCc1cc(O)c2c(c1)OC(C)(C)C1CC=C(C)CC21 (stereo not drawn)', 0.57);
